- ASSAY PROCEDURE: Acute toxicity, intraperitoneal administration
- MEASUREMENT SETUP: in vivo, ip, mouse, groups of 10 female NMRI mice, read-out: Toxicity LD 50
MEASURED ATTRIBUTE: LD50 (mg/kg)
Just the number please, in mg/kg, no unit attached.

Consider the following illustrative entries.
Cc1nnc(-c2cccc(OCC(O)CN3CCN(c4ccccc4Cl)CC3)c2)o1 (stereo not shown) [Example 16]
178
COc1ccccc1N1CCN(CC(O)COc2ccccc2-c2nnc(C)o2)CC1 (stereo not shown) [Example 2]
56.2
COc1ccccc1N1CCN(CC(O)COc2cccc(-c3nnco3)c2)CC1 (stereo not shown) [Example 7]
215
COc1ccccc1N1CCN(CCCNc2cc(=O)n(C)c(=O)n2C)CC1 [Urapidil, reference compound]
362
CCOc1ccccc1N1CCN(CC(O)COc2cccc(-c3nnco3)c2)CC1 (stereo not shown) [Example 9]
215
COc1ccccc1N1CCN(CC(O)COc2cccc(-c3nnc(C)o3)c2)CC1 (stereo not shown) [Example 10]
224

Please examine the following record next.
The molecule listed as CCOc1ccccc1N1CCN(CC(O)COc2cccc(-c3nnc(C)o3)c2)CC1 (stereo not shown) [Example 12] has a reported LD50 of 162
